Reported λmax Emission values for a set of compounds
experiment: Absorbance and fluorescence emission spectra (SpectraMax M2); format: physicochemical; details: BDC library, Table 2
State just the number; it will be interpreted in nm.

Past entries and their recorded results:
CCCCCCCCc1cn(-c2ccc3n2[B-](F)(F)[N+]2=C(N4CCCCC4)C=CC2=C3c2ccc(N)cc2)nn1	583
CC(C)(C)c1cn(-c2ccc3n2[B-](F)(F)[N+]2=C(N4CCCCC4)C=CC2=C3c2ccc(N)cc2)nn1	593
COc1cc(OC)cc(-c2cn(-c3ccc4n3[B-](F)(F)[N+]3=C(N5CCCCC5)C=CC3=C4c3ccc(N)cc3)nn2)c1	578

Please turn your attention to the following entry.
Query: Fill in the blank: the reported λmax Emission of Nc1ccc(C2=C3C=CC(N4CCCCC4)=[N+]3[B-](F)(F)n3c2ccc3-n2cc(C3CCCC3)nn2)cc1 is ____.
Reply: 582

* * *

Assay: Quantum yield measurements versus Acridine Yellow in EtOH
Type: physicochemical
Conditions: MKCA compound library; quantum yield
Method: ^1H-NMR, ^19F-NMR and ^13C-NMR spectra were recorded on Bruker ACF300 (300 MHz), DPX300 (300 MHz) and AMX500 (500 MHz) spectrometers. High resolution mass spectra (ESI) were obtained on a Finnigan/MAT 95XL-T spectrometer. Spectroscopic and quantum yield data were measured on a SpectraMax M2 spectrophotometer (Molecular Devices). Data analysis was performed using GraphPrism 5.0. […]
Reported endpoint: φ (%)
State just the number; it will be interpreted in %.

Past entries and their recorded results:
O=C(CCl)Nc1ccc(C2=C3C=CC(N4CCCC4)=[N+]3[B-](F)(F)n3c2ccc3-n2cc(CO)nn2)cc1	1.97
CCCc1cn(-c2ccc3n2[B-](F)(F)[N+]2=C(NCc4cc(F)cc(F)c4)C=CC2=C3c2ccc(NC(=O)CCl)cc2)nn1	36.09

Please turn your attention to the following entry.
Query: Fill in the blank: the reported φ (%) of CCCC(C)c1cn(-c2ccc3n2[B-](F)(F)[N+]2=C(N4CC(C)OC(C)C4)C=CC2=C3c2ccc(NC(=O)CCl)cc2)nn1 (stereo not drawn) is ____.
Reply: 3.15

* * *

Reported λmax Emission (nm) values for a set of compounds
experiment: Absorbance and fluorescence emission spectra (SpectraMax M2); format: physicochemical; conditions: MKCA compound library; fluorescence emission maximum
State just the number; it will be interpreted in nm.

O=C(CCl)Nc1ccc(C2=C3C=CC(N4CCCC4)=[N+]3[B-](F)(F)n3c2ccc3-n2cc(CC3CCCCC3)nn2)cc1 [MKCA215-8]	564
O=C(CCl)Nc1ccc(C2=C3C=CC(N4CCc5ccccc5C4)=[N+]3[B-](F)(F)n3c2ccc3-n2cc(CC3CCCCC3)nn2)cc1 [MKCA66-8]	582
Cc1ccccc1CNC1=[N+]2C(=C(c3ccc(NC(=O)CCl)cc3)c3ccc(-n4cc(CCc5ccccc5)nn4)n3[B-]2(F)F)C=C1 [MKCA101-19]	562
CCCC(C)c1cn(-c2ccc3n2[B-](F)(F)[N+]2=C(NCc4ccccc4OCC)C=CC2=C3c2ccc(NC(=O)CCl)cc2)nn1 (stereo not drawn) [MKCA103-3]	562
Cc1ccccc1CNC1=[N+]2C(=C(c3ccc(NC(=O)CCl)cc3)c3ccc(-n4cc(CO)nn4)n3[B-]2(F)F)C=C1 [MKCA101-70]	560

Query: Fill in the blank: the reported λmax Emission (nm) of CCCC(C)c1cn(-c2ccc3n2[B-](F)(F)[N+]2=C(NCc4ccccc4C)C=CC2=C3c2ccc(NC(=O)CCl)cc2)nn1 (stereo not drawn) [MKCA101-3] is ____.
Reply: 563

Query: Fill in the blank: the reported λmax Emission (nm) of CN(Cc1ccccc1)Cc1cn(-c2ccc3n2[B-](F)(F)[N+]2=C(N4CCCC4)C=CC2=C3c2ccc(NC(=O)CCl)cc2)nn1 [MKCA215-18] is ____.
Reply: 577

Query: Fill in the blank: the reported λmax Emission (nm) of CCCCCC(O)c1cn(-c2ccc3n2[B-](F)(F)[N+]2=C(NCc4cc(OC)ccc4OC)C=CC2=C3c2ccc(NC(=O)CCl)cc2)nn1 (stereo not drawn) [MKCA181-69] is ____.
Reply: 558

* * *

assay: Absorbance and fluorescence emission spectra (SpectraMax M2); format: physicochemical; settings: BDCAC library, Table 3
Reported endpoint: λmax Emission
Provide a numeric answer, followed by its unit.

Past entries and their recorded results:
CCCCCc1ccc(-c2cn(-c3ccc4n3[B-](F)(F)[N+]3=C(N5CCCCC5)C=CC3=C4c3ccc(NC(C)=O)cc3)nn2)cc1	561 nm
CC(=O)Nc1ccc(C2=C3C=CC(N4CCCCC4)=[N+]3[B-](F)(F)n3c2ccc3-n2cc(C3(O)CCCC3)nn2)cc1	592 nm

Please turn your attention to the following entry.
Query: Fill in the blank: the reported λmax Emission of CC(=O)Nc1ccc(C2=C3C=CC(N4CCCCC4)=[N+]3[B-](F)(F)n3c2ccc3-n2cc(C3=CCCCC3)nn2)cc1 is ____.
Reply: 565 nm

* * *

assay: Absorbance and fluorescence emission spectra (SpectraMax M2); assay type: physicochemical; conditions: MK library, Table 5
Reported endpoint: λmax Emission (nm)
State just the number; it will be interpreted in nm.

Query: Fill in the blank: the reported λmax Emission of CN(Cc1ccccc1)Cc1cn(-c2ccc3n2[B-](F)(F)[N+]2=C(N(C)Cc4ccccc4)C=CC2=C3c2ccc(N)cc2)nn1 is ____.
Reply: 580

Query: Fill in the blank: the reported λmax Emission of Nc1ccc(C2=C3C=CC(NCc4cc(F)cc(F)c4)=[N+]3[B-](F)(F)n3c2ccc3-n2cc(C3CCCC3)nn2)cc1 is ____.
Reply: 567

Query: Fill in the blank: the reported λmax Emission of CCCC(C)c1cn(-c2ccc3n2[B-](F)(F)[N+]2=C(NCc4ccccc4C)C=CC2=C3c2ccc(N)cc2)nn1 (centres unmarked) is ____.
Reply: 562

Query: Fill in the blank: the reported λmax Emission of Nc1ccc(C2=C3C=CC(N4CCc5ccccc5C4)=[N+]3[B-](F)(F)n3c2ccc3-n2cc(CC3CCCCC3)nn2)cc1 is ____.
Reply: 590

Query: Fill in the blank: the reported λmax Emission of CCCc1cn(-c2ccc3n2[B-](F)(F)[N+]2=C(N4CCc5ccccc5C4)C=CC2=C3c2ccc(N)cc2)nn1 is ____.
Reply: 581

Query: Fill in the blank: the reported λmax Emission of CCCCCC(O)c1cn(-c2ccc3n2[B-](F)(F)[N+]2=C(N4CCc5ccccc5C4)C=CC2=C3c2ccc(N)cc2)nn1 (centres unmarked) is ____.
Reply: 583

Query: Fill in the blank: the reported λmax Emission of Nc1ccc(C2=C3C=CC(NCc4cc(F)cc(F)c4)=[N+]3[B-](F)(F)n3c2ccc3-n2cc(C3CC3)nn2)cc1 is ____.
Reply: 562

Query: Fill in the blank: the reported λmax Emission of CC(C)Cc1cn(-c2ccc3n2[B-](F)(F)[N+]2=C(N4CCc5ccccc5C4)C=CC2=C3c2ccc(N)cc2)nn1 is ____.
Reply: 582

Query: Fill in the blank: the reported λmax Emission of CCCCCC(O)c1cn(-c2ccc3n2[B-](F)(F)[N+]2=C(N4CCCC4)C=CC2=C3c2ccc(N)cc2)nn1 (centres unmarked) is ____.
Reply: 580

Query: Fill in the blank: the reported λmax Emission of Cc1ccccc1CNC1=[N+]2C(=C(c3ccc(N)cc3)c3ccc(-n4cc(CCc5ccccc5)nn4)n3[B-]2(F)F)C=C1 is ____.
Reply: 560

Query: Fill in the blank: the reported λmax Emission of CCCC(C)c1cn(-c2ccc3n2[B-](F)(F)[N+]2=C(N4CC(C)OC(C)C4)C=CC2=C3c2ccc(N)cc2)nn1 (centres unmarked) is ____.
Reply: 573

Query: Fill in the blank: the reported λmax Emission of Cc1ccccc1CNC1=[N+]2C(=C(c3ccc(N)cc3)c3ccc(-n4cc(C5CCCC5)nn4)n3[B-]2(F)F)C=C1 is ____.
Reply: 565

Query: Fill in the blank: the reported λmax Emission of CCCCCC(O)c1cn(-c2ccc3n2[B-](F)(F)[N+]2=C(NCc4ccccc4OCC)C=CC2=C3c2ccc(N)cc2)nn1 (centres unmarked) is ____.
Reply: 563

Query: Fill in the blank: the reported λmax Emission of CC(C)Cc1cn(-c2ccc3n2[B-](F)(F)[N+]2=C(N4CC(C)OC(C)C4)C=CC2=C3c2ccc(N)cc2)nn1 (centres unmarked) is ____.
Reply: 584

* * *

test: Quantum yield measurements versus Acridine Yellow in EtOH; assay type: physicochemical; conditions: BDCCA library, Table 4; excitation 460 nm
Classes by φ (quantum yield): range 1: < 0.7%; range 2: ≥ 0.7% and < 1%; range 3: ≥ 1%

CCCCc1ccc(-c2cn(-c3ccc4n3[B-](F)(F)[N+]3=C(N5CCCCC5)C=CC3=C4c3ccc(NC(=O)CCl)cc3)nn2)cc1 [BDCCA-12]	range 3
O=C(CCl)Nc1ccc(C2=C3C=CC(N4CCCCC4)=[N+]3[B-](F)(F)n3c2ccc3-n2cc(CC3CCCC3)nn2)cc1 [BDCCA-7]	range 2
CCCC(C)c1cn(-c2ccc3n2[B-](F)(F)[N+]2=C(N4CCCCC4)C=CC2=C3c2ccc(NC(=O)CCl)cc2)nn1 (racemic) [BDCCA-3]	range 2
COc1cccc(-c2cn(-c3ccc4n3[B-](F)(F)[N+]3=C(N5CCCCC5)C=CC3=C4c3ccc(NC(=O)CCl)cc3)nn2)c1 [BDCCA-27]	range 3
O=C(CCl)Nc1ccc(C2=C3C=CC(N4CCCCC4)=[N+]3[B-](F)(F)n3c2ccc3-n2cc(-c3ccccc3)nn2)cc1 [BDCCA-9]	range 3

Query: Kindly identify the class of COc1cc(OC)cc(-c2cn(-c3ccc4n3[B-](F)(F)[N+]3=C(N5CCCCC5)C=CC3=C4c3ccc(NC(=O)CCl)cc3)nn2)c1 [BDCCA-14] .
Reply: range 2

Query: Kindly identify the class of CN(C)c1ccc(-c2cn(-c3ccc4n3[B-](F)(F)[N+]3=C(N5CCCCC5)C=CC3=C4c3ccc(NC(=O)CCl)cc3)nn2)cc1 [BDCCA-13] .
Reply: range 1

Query: Kindly identify the class of CCCCCCCCCCc1cn(-c2ccc3n2[B-](F)(F)[N+]2=C(N4CCCCC4)C=CC2=C3c2ccc(NC(=O)CCl)cc2)nn1 [BDCCA-49] .
Reply: range 3

Query: Kindly identify the class of CC(C)(C)c1ccc(-c2cn(-c3ccc4n3[B-](F)(F)[N+]3=C(N5CCCCC5)C=CC3=C4c3ccc(NC(=O)CCl)cc3)nn2)cc1 [BDCCA-11] .
Reply: range 3

Query: Kindly identify the class of CCCc1cn(-c2ccc3n2[B-](F)(F)[N+]2=C(N4CCCCC4)C=CC2=C3c2ccc(NC(=O)CCl)cc2)nn1 [BDCCA-48] .
Reply: range 3

Query: Kindly identify the class of Cc1ccc(-c2cn(-c3ccc4n3[B-](F)(F)[N+]3=C(N5CCCCC5)C=CC3=C4c3ccc(NC(=O)CCl)cc3)nn2)cc1 [BDCCA-10] .
Reply: range 3

Query: Kindly identify the class of O=C(CCl)Nc1ccc(C2=C3C=CC(N4CCCCC4)=[N+]3[B-](F)(F)n3c2ccc3-n2cc(C3CCCC3)nn2)cc1 [BDCCA-5] .
Reply: range 2

Query: Kindly identify the class of O=C(CCl)Nc1ccc(C2=C3C=CC(N4CCCCC4)=[N+]3[B-](F)(F)n3c2ccc3-n2cc(CO)nn2)cc1 [BDCCA-70] .
Reply: range 1

Query: Kindly identify the class of CC(C)Cc1cn(-c2ccc3n2[B-](F)(F)[N+]2=C(N4CCCCC4)C=CC2=C3c2ccc(NC(=O)CCl)cc2)nn1 [BDCCA-43] .
Reply: range 2

Query: Kindly identify the class of O=C(CCl)Nc1ccc(C2=C3C=CC(N4CCCCC4)=[N+]3[B-](F)(F)n3c2ccc3-n2cc(-c3ccc(OC(F)(F)F)cc3)nn2)cc1 [BDCCA-15] .
Reply: range 3

Query: Kindly identify the class of O=C(CCl)Nc1ccc(C2=C3C=CC(N4CCCCC4)=[N+]3[B-](F)(F)n3c2ccc3-n2cc(CC3CCCCC3)nn2)cc1 [BDCCA-8] .
Reply: range 1

Query: Kindly identify the class of CC(C)CCc1cn(-c2ccc3n2[B-](F)(F)[N+]2=C(N4CCCCC4)C=CC2=C3c2ccc(NC(=O)CCl)cc2)nn1 [BDCCA-36] .
Reply: range 1

Query: Kindly identify the class of O=C(CCl)Nc1ccc(C2=C3C=CC(N4CCCCC4)=[N+]3[B-](F)(F)n3c2ccc3-n2cc(C3CC3)nn2)cc1 [BDCCA-4] .
Reply: range 3

Query: Kindly identify the class of CN(C)Cc1cn(-c2ccc3n2[B-](F)(F)[N+]2=C(N4CCCCC4)C=CC2=C3c2ccc(NC(=O)CCl)cc2)nn1 [BDCCA-2] .
Reply: range 1
